- TARGET_OR_TEST_SYSTEM: human PHD2 (Homo sapiens (Human))
- EXPERIMENT_DESCRIPTION: Test 2: human PHD2 inhibitory activity, fluorescence polarization assay of HIF-1α peptide proline hydroxylation
- Type: biochemical
- RUN_PARAMETERS: test compound's concentration 1 μM; Test 2, fluorescence polarization assay; read-out: Percent inhibition (% at 1 μM)
MEASURE_NAME: inhibition at 1 µM (%)

SMILES_TEXT: O=C(O)CNC(=O)C1=C(O)CCN(Cc2ccc(OCc3ccc(OC(F)(F)F)cc3)cc2)C1=O
MEASURE_NAME: inhibition at 1 µM
DISPLAY_UNIT: %
RESULT_VALUE: 85

[I] O=C(O)CNC(=O)C1=C(O)C2(CC2)CN(Cc2ccc(OCC3CC3)cc2)C1=O
[II] CC1(C)CC(O)=C(C(=O)NCC(=O)O)C(=O)N1C[C@H]1C[C@@H]1c1ccccc1
Query :: Please state the entry with greater inhibition at 1 µM among I and II . Give the label of your selection.
Result :: I
(I: 91%, II: 60%)

---

- TARGET_OR_TEST_SYSTEM: UniProt Q9GZT9
- EXPERIMENT_DESCRIPTION: Test 2: human PHD2 inhibitory activity, fluorescence polarization assay of HIF-1α peptide proline hydroxylation
- Format: biochemical
- RUN_PARAMETERS: test compound's concentration 1 μM; Test 2, fluorescence polarization assay; read-out: Percent inhibition (% at 1 μM)
- Description: (1) Expression and Preparation of Human PHD2 A registered sequence of human PHD2 (NM_022051) was introduced into pcDNA3.1/Hygro(+) vector (Invitrogen), and the sequence was verified. […] The activity of human PHD2 enzyme was measured with a substrate which is a 19-residue partial peptide based on the sequence of HIF-1α; specifically, the hydroxylation of a proline residue in the peptide was measured by FP (Fluorescence Polarization). […]
MEASURE_NAME: inhibition at 1 µM (%)

COMPOUND: O=C(O)CNC(=O)C1=C(O)C2(CCOCC2)CN(Cc2cnc(-c3ccccc3)s2)C1=O
MEASURE_NAME: inhibition at 1 µM
DISPLAY_UNIT: %
RESULT_VALUE: 91

[I] O=C(O)CNC(=O)C1=C(O)CC2(CCCCC2)N(Cc2ccc(C(F)(F)F)cc2)C1=O
[II] O=C(O)CNC(=O)C1=C(O)CCN(Cc2ccc(-c3ccc(C4CC4)cc3)cn2)C1=O
[III] CC(C)(c1ccc(C(F)(F)F)cc1)N1CCC(O)=C(C(=O)NCC(=O)O)C1=O
Query :: Rank descending by inhibition at 1 µM. Returns: the labels arranged in the requested order.
Result :: II, I, III

[A] O=C(O)CNC(=O)C1=C(O)CCN(Cc2ccc(Sc3ccc(Cl)cc3)nc2)C1=O
[B] Cn1nc(CN2C(=O)C(C(=O)NCC(=O)O)=C(O)CC2(C)C)cc1-c1ccccc1
Query :: Please state the entry with greater inhibition at 1 µM among A and B . Give the label of your selection.
Result :: A
(A: 97%, B: 43%)

---

- TARGET_OR_TEST_SYSTEM: human PHD2 (Homo sapiens (Human), UniProt Q9GZT9)
- Sequence (Q9GZT9 whole entry): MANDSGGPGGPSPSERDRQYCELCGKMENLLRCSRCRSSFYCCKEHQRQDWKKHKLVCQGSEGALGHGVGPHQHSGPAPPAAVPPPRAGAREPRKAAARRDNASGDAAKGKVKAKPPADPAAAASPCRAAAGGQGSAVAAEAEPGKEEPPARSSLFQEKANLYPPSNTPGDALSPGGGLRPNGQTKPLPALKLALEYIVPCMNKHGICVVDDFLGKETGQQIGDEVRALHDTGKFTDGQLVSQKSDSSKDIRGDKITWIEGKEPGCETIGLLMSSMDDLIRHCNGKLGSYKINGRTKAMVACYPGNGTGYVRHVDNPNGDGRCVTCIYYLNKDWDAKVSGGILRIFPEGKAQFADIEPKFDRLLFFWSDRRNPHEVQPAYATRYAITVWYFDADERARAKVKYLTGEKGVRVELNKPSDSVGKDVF
- EXPERIMENT_DESCRIPTION: Test 1: human PHD2 inhibitory activity, [14C]-2-oxoglutarate to [14C]-succinic acid radiometric assay with HIF-1α peptide
- Type: biochemical
- RUN_PARAMETERS: test compound's concentration 1 μM; Test 1, [14C]-2-oxoglutarate radiometric assay; read-out: Percent inhibition (% at 1 μM)
MEASURE_NAME: inhibition at 1 µM (%)

COMPOUND: O=C(O)CNC(=O)C1=C(O)C2(CCOCC2)CN(Cc2ccc(-c3ccc(C(F)(F)F)cc3)cc2)C1=O
inhibition at 1 µM (%): 85

COMPOUND: O=C(O)CNC(=O)C1=C(O)CCN(Cc2ccc(OCc3ccccc3)cc2)C1=O
inhibition at 1 µM (%): 91

COMPOUND: CC1(C)CC(O)=C(C(=O)NCC(=O)O)C(=O)N1C[C@H]1C[C@@H]1c1ccccc1
inhibition at 1 µM (%): 74

COMPOUND: Cc1cccc(Oc2ccc(CN3CCC(O)=C(C(=O)NCC(=O)O)C3=O)cn2)c1
inhibition at 1 µM (%): 99

COMPOUND: CC1CN(CC2CCC(c3ccccc3)CC2)C(=O)C(C(=O)NCC(=O)O)=C1O (centres unmarked)
inhibition at 1 µM (%): 67

COMPOUND: CC1CC(O)=C(C(=O)NCC(=O)O)C(=O)N1Cc1ccc(-c2ccc(F)cc2)cc1 (centres unmarked)
inhibition at 1 µM (%): 93

COMPOUND: Cc1ccc(CN2CC3(CCC3)C(O)=C(C(=O)NCC(=O)O)C2=O)cc1
inhibition at 1 µM (%): 58

COMPOUND: O=C(O)CNC(=O)C1=C(O)CCN(Cc2ccc3cccnc3c2)C1=O
inhibition at 1 µM (%): 78

COMPOUND: O=C(O)CNC(=O)C1=C(O)CC2(CCCCC2)N(Cc2cnc(-c3ccccc3)s2)C1=O
inhibition at 1 µM (%): 68

COMPOUND: CC1(C)CC(O)=C(C(=O)NCC(=O)O)C(=O)N1Cc1cc(-c2ccc(Cl)cc2)on1
inhibition at 1 µM (%): 75

COMPOUND: O=C(O)CNC(=O)C1=C(O)CCN(Cc2ccc(Cl)c(Cl)c2)C1=O
inhibition at 1 µM (%): 84

COMPOUND: Cc1ccc(Oc2ccc(CN3CC4(CC4)C(O)=C(C(=O)NCC(=O)O)C3=O)cn2)cc1
inhibition at 1 µM (%): 108

COMPOUND: CC1CC(O)=C(C(=O)NCC(=O)O)C(=O)N1Cc1ccc(C(F)(F)F)cc1 (centres unmarked)
inhibition at 1 µM (%): 70

COMPOUND: Cc1ccc(CN2CC3(CCOCC3)C(O)=C(C(=O)NCC(=O)O)C2=O)cc1
inhibition at 1 µM (%): 69

COMPOUND: O=C(O)CNC(=O)C1=C(O)CCN(Cc2ccc(Oc3ccc(F)cc3)nc2)C1=O
inhibition at 1 µM (%): 104

COMPOUND: CCC(c1ccc(C(F)(F)F)cc1)N1CCC(O)=C(C(=O)NCC(=O)O)C1=O (centres unmarked)
inhibition at 1 µM (%): 64

COMPOUND: O=C(O)CNC(=O)C1=C(O)CCN(Cc2ccc(OCC(F)(F)F)c(F)c2)C1=O
inhibition at 1 µM (%): 83

COMPOUND: O=C(O)CNC(=O)C1=C(O)CC2(CCCC2)N(Cc2ccc(C(F)(F)F)cc2)C1=O
inhibition at 1 µM (%): 70

COMPOUND: O=C(O)CNC(=O)C1=C(O)CCN(Cc2ccc(OC(F)(F)F)c(Cl)c2)C1=O
inhibition at 1 µM (%): 78

COMPOUND: O=C(O)CNC(=O)C1=C(O)CCN(C2CCC(Cc3ccccc3)CC2)C1=O (centres unmarked)
inhibition at 1 µM (%): 72

COMPOUND: COc1ccc(CN2CCC(O)=C(C(=O)NCC(=O)O)C2=O)c(C)c1
inhibition at 1 µM (%): 65

COMPOUND: Cn1nccc1-c1ccc(CN2CCC(O)=C(C(=O)NCC(=O)O)C2=O)cc1
inhibition at 1 µM (%): 94

COMPOUND: O=C(O)CNC(=O)C1=C(O)C2(CCOCC2)CN(Cc2ccc(C(F)(F)F)cc2)C1=O
inhibition at 1 µM (%): 80

The measured values listed here are drawn from patent US9422240B2.
